Where do these numbers come from? They come from PubChem BioAssay (NCI).

Test system: SK-MEL-5 melanoma
Experiment: NCI tumour cell line growth inhibition, 48 h
Measurement name: TGI

C[C@@H](NC1CCCC[C@@H]1O)c1ccccc1 (stereo not given in full) | > 100 µM
CC1(C)N=C(C(N)=O)c2ncn(Cc3ccccc3)c2N1 | > 100 µM
CCOC(=O)c1sc2nc(SC)nc3c2c1NC(=O)CN3c1ccc(F)cc1 | > 100 µM
CC(=O)OC1C(O)C(C)OC(OC2C(OC(=O)C3CCC4C(C3)OC3(CC(OC(=O)/C=C/c5ccccc5)C(C)CO3)C43CO3)OC(C)C(O)C2OC(C)=O)C1O (stereo not given) | 0.0155 µM
CC(=O)N1C(c2[nH]c3ccccc3c2Cc2ccccc2)CCN1c1ccccc1 (stereo not given) | > 10 µM
CC(=Nc1ccc(Cl)cc1)c1ccncc1 | > 100 µM
C1CSCCSCCSCCSCCS1 | > 100 µM
O=C(O)C12C3CCC(C3)C1(C(=O)O)C1CCC2C1 (stereo not given) | > 100 µM
Cn1cc(-c2csc(-c3ccccc3)n2)c2cccnc21 | 26.6 µM
NNC(=O)/C(NC(=O)c1ccccc1)=C(\N)c1cccc([N+](=O)[O-])c1 | > 100 µM
COP12(OC)NC(=O)OC1(C(F)(F)F)c1ccccc1O2 (stereo not given) | > 100 µM
N#Cc1c(-c2ccccc2)cn(C(=O)c2ccccc2)c1N | > 100 µM
CC(C)(C)N1CC1CNC(=O)C(=O)NCC1CN1C(C)(C)C (stereo not given) | 45.2 µM
CC(C)(C)OC(=O)N(O)CCCn1cnc2c(NC3CC3)ncnc21 | > 100 µM
Nc1c(F)c(F)c2c(c1F)N(CCCCCl)c1ccccc1S2 | > 100 µM
COc1cc(/C=C2\CCC/C(=C\c3cc(CN4CCCC4)c(O)c(OC)c3)C2=O)cc(CN2CCCC2)c1O | 15.5 µM
CC(C)=CCC/C(C)=C/Cc1c2c(c3oc(-c4ccc(O)c(O)c4)c(O)c(=O)c3c1O)C=CC(C)(C)O2 | 9.86 µM
OC1C2CCCCN2C[C@@H](O)[C@H]1O (stereo not given in full) | > 100 µM
CCCCC(CC)C(=O)Oc1ccc(C(=O)c2ccccc2)c(O)c1 (stereo not given) | > 100 µM
CCOC(=O)/C(=C\c1c[nH]c2ccccc12)P(=O)(OCC)OCC | > 100 µM
CSC1=CC(=O)c2ccccc2C1=O | 19 µM
O=C(O)c1ccc(CSc2nc3ccccc3[nH]2)cc1 | > 100 µM
COC(C)=NCCC1=CCCCC1 | > 100 µM
CC(=O)Oc1ccc(C2OC(c3ccc4ccccc4c3OC(C)=O)=NN2C(C)=O)c(OC(C)=O)c1 (stereo not given) | > 32.3 µM
O=C(c1ccccc1)c1ccc(N2C(=O)/C(=C/c3cccc(Oc4ccccc4)c3)N=C2c2ccccc2)c(N2C(=O)/C(=C/c3cccc(Oc4ccccc4)c3)N=C2c2ccccc2)c1 | 30.7 µM
COc1ccc2c(O)c1-c1c(OC)ccc(c1O)SSc1ccc(OC)c(c1O)-c1c(OC)ccc(c1O)SS2 | > 100 µM
CN1C(=O)C(=Cc2ccc(Br)cc2)C(=O)N(C)C1=O | > 100 µM
COc1ccc(N=Nc2ccc(O)c(=O)cc2)cc1 | 16.2 µM
O=c1[nH]c(=O)n([C@H]2C[C@@H](CO)[C@@H](O)C2)cc1I | > 100 µM
C/C(=C\[Si](C)(C)c1ccco1)C(C)(O)[C@H](C)O (stereo not given in full) | > 100 µM
Nc1ccc(Oc2ccc(C34CC5C6CC7(c8ccc(Oc9ccc(N)cc9)cc8)CC5C(C3)C(C7)C6C4)cc2)cc1 | > 100 µM
CO[P@@]1(=O)O[C@@H](c2ccccc2)[C@H](O)[C@@]1(O)c1ccccc1 | > 100 µM
COc1ccc2nc3c4c(nccc4c2c1)-c1ncccc1C3=O | 0.111 µM
CC(C)N(C(C)C)S(=O)(=O)CC12CCC(C/C1=N\O)C2 (stereo not given) | > 100 µM
COc1ccc2nc3cc([N+](=O)[O-])ccc3c(NCCO)c2c1 | 3.26 µM

====

System: HOP-92 NSCLC
Test: NCI tumour cell line growth inhibition, 48 h; in the data active means GI50 below about 0.43 µM; inactive means the rest
Classes used: active, inactive

COc1ccc2nc3cc([N+](=O)[O-])ccc3c(NCCO)c2c1 | inactive
C=C(C(=O)c1ccccc1)C(NC(C)(C)C)c1ccccc1 (stereo not given) | inactive
CCCCCCCCCN=C(N)c1ccc(N2CCN(c3ccc(C(N)=NCCCCCCCCC)cc3)CC2)cc1 | inactive
CCOC(=O)C1=C(C)NC2SC(=O)/C(=C\c3cccc(Cl)c3)N2C1c1ccccc1 (stereo not given) | inactive
COc1ccc(-c2nc3sccn3c2-c2ccnc(NCCNS(=O)(=O)c3ccc(C(F)(F)F)cc3)n2)cc1 | active

====

Test system: K-562 leukemia
Assay: NCI tumour cell line growth inhibition, 48 h; in the data active = GI50 below about 0.43 µM; inactive = the rest
Classes used: 1 for active, -1 for inactive

Nc1c(C(=O)Nc2cccc(Cl)c2)sc2nc3c(cc12)C(O)CCC3 (stereo not given) | 1
C[n+]1cccc(NC(=O)c2ccc3ccc4ccc(C(=O)Nc5ccc[n+](C)c5)nc4c3n2)c1 | -1
CCOc1cc(Cl)c(C(C)NC(=O)c2cccc(OC)c2)cc1OCC (stereo not given) | -1
CCN1C(=O)/C(=c2\sc3n(c2=O)C2C(NN=3)N(CC)C(=O)N2CC)c2ccccc21 (stereo not given) | 1
CCc1ccc(Oc2c(-c3ccc(OCCc4cccc(C(F)(F)F)c4)cc3O)n[nH]c2C(F)(F)F)cc1 | -1

====

Test system: NCI-H23 lung
Experiment: NCI tumour cell line growth inhibition, 48 h; in the data active = GI50 below about 0.43 µM; inactive = the rest
Classes used: Y for active, N for inactive

COC(=O)C1C(C(=O)O)C2(c3ccccc3)C(=O)C1(c1ccccc1)C(c1ccc(OC)cc1)=C2c1ccc(OC)cc1 (stereo not given) | N
C[C@@]12CC[C@@H](O)C[C@@H]1CC[C@H]1[C@H]2CC[C@@]2(C)[C@H](c3ccc(=O)oc3)CC[C@@]12O | Y
CCN1C(=O)/C(=c2\sc3n(c2=O)C2C(NN=3)N(CC)C(=O)N2CC)c2ccccc21 (stereo not given) | N
NS(=O)(=O)c1ccc(N=Nc2c(O)[nH]c3ccc(C(=O)NCCCn4ccnc4)cc23)cc1 | N
CCOC(=O)c1c(-c2ccccc2)n2c(=O)cc(C)c3c(O)c(O)cc1c32 | N
CS(=O)(=O)N1CCC(Nc2ncc(C(=O)c3c(F)cccc3F)c(N)n2)CC1 | N
COc1cc2c(Nc3ccc(-c4ccc(N)cc4)cc3)ncnc2c(OC)c1OC | N
COc1ccc2[nH]c(C(=O)OCc3ccc4c(Br)cc(Br)c(O)c4n3)cc2c1 | N
Cc1cc(O)ccc1C1(c2ccc(O)cc2C)OC(=O)c2ccccc21 | N
COc1cc(/C=C2\CC3C4CCC5=CC(=O)CC[C@]5(C)C4CC[C@]3(C)C2=O)ccc1OCCN1CCCC1 (stereo not given in full) | N

====

The entries below come with measured TGI values attached.
Test system: SF-539 CNS
Assay: NCI tumour cell line growth inhibition, 48 h
Measurement name: TGI (µM)

CCCCCCCCCCCCCCCC(=O)NS(=O)(=O)OC[C@H]1O[C@@H](n2cnc3c(N)ncnc32)[C@H](O)[C@@H]1O | 0.359
CC1(C)CC[C@]23CC[C@]4(C)[C@H](CC[C@@H]5[C@@]6(C)CCCNC(C)(C)[C@@H]6CC[C@]54C)[C@H]2[C@H]1OC3 | 3.07
C=C(C(=O)c1ccccc1)C(NC(C)(C)C)c1ccccc1 (stereo not drawn) | 8.36
COc1ccc2nc3ccc(OC)cc3c(S(=O)Cc3ccccc3)c2c1 (stereo not drawn) | 27.2

====

System: NCI-H522 lung
Assay: NCI tumour cell line growth inhibition, 48 h
Measurement name: log10(TGI) (log10 of the value in µM)

COc1cc(/C=C2\CC3C4CCC5=CC(=O)CC[C@]5(C)C4CC[C@]3(C)C2=O)ccc1OCCN1CCCC1 (some centres undefined) | 0.74
O=S(=O)(O)c1c(Cl)c(Cl)c(O)c2ncccc12 | 1.33
C=C(C)[C@@H]1CC[C@]2(C(=O)O)CC[C@]3(C)[C@H](CC[C@@H]4[C@@]5(C)C/C(=C/c6ccco6)C(=O)C(C)(C)[C@@H]5CC[C@]43C)[C@@H]12 | 0.99
CCOC(=O)c1c(-c2ccccc2)n2c(=O)cc(C)c3c(O)c(O)cc1c32 | 1.06
O=C1CC(n2ccnc2)c2c(Cl)sc(Cl)c21 (centres undefined) | 1.23
O=c1cccccc1[O-].O=c1cccccc1[O-].O=c1cccccc1[O-].[Nd+3] | 1.87
Cc1ccc(NC(=O)c2cccc(OP(=O)(Nc3ccc(C)cc3)Nc3ccc(C)cc3)c2)cc1 | 1.08
Cn1cc(-c2csc(-c3ccccc3)n2)c2cccnc21 | 1.52
CC(=O)Oc1ccc(C2OC(c3ccc4ccccc4c3OC(C)=O)=NN2C(C)=O)c(OC(C)=O)c1 (centres undefined) | 0.79
